Each recorded value in this set is attributed to patent US7091311.

Biological target: T1, full length human TPO-R (human, UniProt P40238 26-635)
T1 sequence (looked up): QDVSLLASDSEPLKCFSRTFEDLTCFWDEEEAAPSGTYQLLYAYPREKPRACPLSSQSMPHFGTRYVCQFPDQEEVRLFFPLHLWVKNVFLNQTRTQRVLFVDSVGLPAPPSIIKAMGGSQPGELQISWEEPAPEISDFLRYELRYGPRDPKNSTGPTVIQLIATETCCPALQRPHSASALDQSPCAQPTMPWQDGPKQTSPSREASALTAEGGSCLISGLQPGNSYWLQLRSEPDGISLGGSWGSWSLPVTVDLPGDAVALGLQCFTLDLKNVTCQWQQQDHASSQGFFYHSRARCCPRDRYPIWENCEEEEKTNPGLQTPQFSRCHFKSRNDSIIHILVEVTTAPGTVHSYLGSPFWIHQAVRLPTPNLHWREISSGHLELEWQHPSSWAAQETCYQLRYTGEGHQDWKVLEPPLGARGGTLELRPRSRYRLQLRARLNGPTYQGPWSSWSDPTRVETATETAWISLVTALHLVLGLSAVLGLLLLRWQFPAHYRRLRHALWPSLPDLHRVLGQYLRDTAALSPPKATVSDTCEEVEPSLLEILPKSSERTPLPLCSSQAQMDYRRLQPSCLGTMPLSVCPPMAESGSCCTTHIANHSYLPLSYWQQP
Assay: cell-based or functional assay
Bridges are numbered along the chain shown (N, C = ends). Where no end group is shown, it is not given here. [ ]: non-standard residue; d: D form. Phe(4-NO2) = N[C@@H](Cc1ccc([N+](=O)[O-])cc1)C(=O)O; Phe(3,4-Cl2) = N[C@@H](Cc1ccc(Cl)c(Cl)c1)C(=O)O; hPhe = N[C@@H](CCc1ccccc1)C(=O)O; Cha = N[C@@H](CC1CCCCC1)C(=O)O; Nva = CCC[C@H](N)C(=O)O; Aib = CC(C)(N)C(=O)O

[
  {
    "binder": "CAAGPTLREWISFC (also: cyclized, mode not given here) [SEQ ID NO:12 cyclized, D - A]",
    "EC50 microphysiometer": "≤ 200000 nM"
  },
  {
    "binder": "CADGPTLREWIS[Phe(4-NO2)]C (disulfide 1-14 (inferred); not fully specified) [SEQ ID NO:12 cyclized, F - (p-Nitrophe)]",
    "EC50 microphysiometer": "≤ 500 nM"
  },
  {
    "binder": "CADGPTLREWIS[hPhe]C (disulfide 1-14 (inferred); not fully specified) [SEQ ID NO:12 cyclized, F - Homo-Phe]",
    "EC50 microphysiometer": "≤ 500 nM"
  },
  {
    "binder": "CADGPTLREWI[Nva]FC (disulfide 1-14 (inferred); not fully specified) [SEQ ID NO:12 cyclized, S - Nva]",
    "EC50 microphysiometer": "≤ 500 nM"
  },
  {
    "binder": "CADGPTLREWIAFC (also: cyclized, mode not given here) [SEQ ID NO:12 cyclized, S - A]",
    "EC50 microphysiometer": "≤ 500 nM"
  },
  {
    "binder": "CADGPTLREWIS[Cha]C (disulfide 1-14 (inferred); not fully specified) [SEQ ID NO:12 cyclized, F - CHA]",
    "EC50 microphysiometer": "≤ 500 nM"
  },
  {
    "binder": "CADGPTLRQWISFC (also: cyclized, mode not given here) [SEQ ID NO:12 cyclized, E - Q]",
    "EC50 microphysiometer": "≤ 200000 nM"
  },
  {
    "binder": "CADGPTLREWIS[Phe(3,4-Cl2)]C (disulfide 1-14 (inferred); not fully specified) [SEQ ID NO:12 cyclized, F - (3,4-di-Cl-Phe)]",
    "EC50 microphysiometer": "≤ 200000 nM"
  },
  {
    "binder": "CADGPTLREWI[Aib]FC (disulfide 1-14 (inferred); not fully specified) [SEQ ID NO:12 cyclized, S - Aib]",
    "EC50 microphysiometer": "≤ 200000 nM"
  }
]
